test system: 993429-296-R-J1-PDC complex spheroid growth, percent test/control; assay: Anticancer human tumor 993429-296-R-J1-PDC patient-derived uterine sarcoma cell line growth inhibition [Asc]; conditions: second compound 0.03 µM; first compound 1 µM; stronger effect = lower value;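 further: spheroids exposed to compounds for seven days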
// values below are reported viability, T/C
Quantity Kind: viability, T/C (%)

CNC(C)C(=O)NC1CN(S(=O)(=O)c2cccc(S(=O)(=O)N3CCC4CCC(C(=O)NC(c5ccccc5)c5ccccc5)N4C(=O)C(NC(=O)C(C)NC)C3)c2)CCC2CCC(C(=O)NC(c3ccccc3)c3ccccc3)N2C1=O (centres undefined) + CCN1C(C(=O)NC23CCC(C(=O)O)(CC2)CC3)C(c2cccc(Cl)c2F)C2(C(=O)Nc3cc(Cl)ccc32)C12CCCCC2 : 51.7
C=C(F)C(=O)N1CCN(c2nc(OCC3CCCN3C)nc3c2CCN(c2cccc4cccc(Cl)c24)C3)CC1CC#N (centres undefined) + CCN1C(C(=O)NC23CCC(C(=O)O)(CC2)CC3)C(c2cccc(Cl)c2F)C2(C(=O)Nc3cc(Cl)ccc32)C12CCCCC2 : 54
C#Cc1c(F)ccc2cc(O)cc(-c3ncc4c(N5CC6CCC(C5)N6)nc(OCC56CCCN5CC(F)C6)nc4c3F)c12 (centres undefined) + CCN1C(C(=O)NC23CCC(C(=O)O)(CC2)CC3)C(c2cccc(Cl)c2F)C2(C(=O)Nc3cc(Cl)ccc32)C12CCCCC2 : 84
CCN1CCN(Cc2ccc(Nc3ncc(F)c(-c4cc(F)c5nc(C)n(C(C)C)c5c4)n3)nc2)CC1 + CCN1C(C(=O)NC23CCC(C(=O)O)(CC2)CC3)C(c2cccc(Cl)c2F)C2(C(=O)Nc3cc(Cl)ccc32)C12CCCCC2 : 125

src = PubChem BioAssay AID1963446
